- Tested on: Nrf2 / ARE-dependent luciferase in AREc32 reporter cell line
- assay-notes: AREc32 luciferase reporter activation (Nrf2 induction)
- Assay type: cell-based, human
- condition-notes: Table 2; ratio to RTA402
# Lookup of reported Relative Avg AREc32 EC2X Relative to RTA402 (fold) keyed by entry
Reply with the number and its unit after it.

Sample records with Relative Avg AREc32 EC2X Relative to RTA402 (fold):
CNC(=O)N(C)C[C@]12CC[C@@H](C)[C@H](C)[C@H]1[C@H]1C(=O)C=C3[C@@]4(C)C=C(C#N)C(=O)C(C)(C)[C@@H]4CC[C@@]3(C)[C@]1(C)CC2 0.441 ± 0.075 fold
[2H]C([2H])([2H])C(=O)N(C)C[C@]12CC[C@@H](C)[C@H](C)[C@H]1[C@H]1C(=O)C=C3[C@@]4(C)C=C(C#N)C(=O)C(C)(C)[C@@H]4CC[C@@]3(C)[C@]1(C)CC2 0.486 ± 0.047 fold

Attention now turns to another entry.
Looking up C[C@@H]1[C@H]2[C@H]3C(=O)C=C4[C@@]5(C)C=C(C#N)C(=O)C(C)(C)[C@@H]5CC[C@@]4(C)[C@]3(C)CC[C@@]2(CN2CCCC2=O)CC[C@H]1C , I found its Relative Avg AREc32 EC2X Relative to RTA402 (fold) recorded as 0.447 ± 0.085 fold
